Listed next: entries and their corresponding OX2R agonist activity (3 μM, %).
- tested.on: human orexin type 2 receptor (Homo sapiens, UniProt O43614)
- Construct: expressed in transfected cells
- Sequence (O43614 1-444): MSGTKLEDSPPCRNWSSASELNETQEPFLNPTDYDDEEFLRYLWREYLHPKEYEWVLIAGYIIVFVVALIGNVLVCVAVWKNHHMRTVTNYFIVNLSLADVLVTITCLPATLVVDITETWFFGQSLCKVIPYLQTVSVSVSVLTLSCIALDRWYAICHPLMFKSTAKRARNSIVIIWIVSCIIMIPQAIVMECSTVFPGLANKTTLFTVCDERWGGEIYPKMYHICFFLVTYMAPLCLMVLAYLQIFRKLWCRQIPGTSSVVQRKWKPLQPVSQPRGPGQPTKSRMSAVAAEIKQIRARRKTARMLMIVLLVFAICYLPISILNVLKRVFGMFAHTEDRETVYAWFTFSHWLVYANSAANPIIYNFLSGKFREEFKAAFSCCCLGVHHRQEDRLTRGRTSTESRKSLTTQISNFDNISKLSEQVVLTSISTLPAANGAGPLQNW
- procedure.text: Measurement of orexin type 2 receptor agonist activity (calcium indicator fluorescence, CHO cells forcibly expressing human OX2 receptor)
- Type: cell-based
- measurement.parameters: compound at 3 μM; 0% = DMSO, 100% = orexin A (human) 10 nM

compound	OX2R agonist activity (3 μM, %)
CS(=O)(=O)N[C@@H]1[C@H](Cc2cccc(-c3cc(F)cc(F)c3)c2F)N(C(=O)C23CC(C2)C3)CC1(F)F	93%
CCS(=O)(=O)N[C@H]1[C@@H](F)CN(C(=O)N(C)C)[C@H]1Cc1cccc(-c2cc(F)cc(F)c2)c1F	88%
CCS(=O)(=O)N[C@@H]1[C@H](Cc2cccc(-c3cc(Cl)ccc3F)c2F)N(C(=O)C2CC2)CC1(F)F	91%
CCS(=O)(=O)N[C@@H]1[C@H](Cc2cccc(-c3cc(F)c(F)c(F)c3)c2F)N(C(=O)C2CCO2)CC1(F)F (some centres unmarked) [Example 473]	97%
CCS(=O)(=O)N[C@@H]1[C@H](Cc2cccc(-c3ccccc3)c2F)N(C(=O)[C@H]2CCCO2)CC1(F)F	99%
CCS(=O)(=O)N[C@H]1[C@@H](F)CN(C(=O)C(C)(C)O)[C@H]1Cc1cccc(-c2cc(F)cc(Cl)c2)c1F	92%
CCS(=O)(=O)N[C@H]1[C@@H](F)CN(C(=O)C(C)(C)O)[C@H]1Cc1cccc(-c2cccc(Cl)c2F)c1F	102%
CS(=O)(=O)N[C@@H]1[C@H](Cc2cccc(-c3cccc(Cl)c3)c2F)N(C(=O)C2CCO2)CC1(F)F (some centres unmarked)	96%
